- Tested on: MDA-MB-231 human breast carcinoma cells
- test.protocol: MDA-MB-231 in vitro cellular proliferation inhibition (BrdU)
- Type: cell-based
- settings: Homo sapiens, MDA-MB-231, read-out: MDA-MB-231 (IC50 μM)
recorded.endpoint: IC50 (µM)
Numeric only. Scale: µM

For C[C@]12CC[C@@H]3c4cc(N=[N+]=[N-])c(O)cc4CC[C@H]3[C@@H]1CC[C@@H]2O , what is its reported IC50?
13.3

* * *

- Tested on: HUVEC cells
- test.protocol: HUVEC in vitro cellular proliferation inhibition (BrdU, bFGF)
- Format: cell-based, human
- settings: Table 2, 2 substituted E2 derivatives
recorded.endpoint: IC50 (µM)
Write the value in µM as a bare number.

Request the reported IC50 associated with COc1cc2c(cc1O)CC[C@@H]1[C@@H]2CC[C@]2(C)[C@@H](O)CC[C@@H]12 [2-Methoxyestradiol, reference compound]
0.66
